B1: Pistol ribozyme (parent)
chain: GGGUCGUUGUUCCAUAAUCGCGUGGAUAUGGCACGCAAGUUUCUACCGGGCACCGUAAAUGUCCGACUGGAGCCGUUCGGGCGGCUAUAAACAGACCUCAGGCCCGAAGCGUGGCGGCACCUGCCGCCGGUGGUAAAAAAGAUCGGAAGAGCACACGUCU

# Variants of: B1
# assayNotes: aptazyme ON/OFF ratio, guanine; higher = stronger switching; co-transcriptional cleavage with and without guanine
recordedEndpoint: aptazyme ON/OFF ratio
Give bare numbers.

Solved cases below.
U8A G9A U11A C13G = 1.03
U7G G9A U10G U11A C12U C13G = 1.05
U7C U8C U10C U11G C12G C13G = 1.13
U7C U8A G9A U11C C12U C13G = 1.09

Dear colleague, could you send me aptazyme ON/OFF ratio for each of the items below? Thanks.
1. U7A U8C G9C U10G U11C C13A
2. U10A U11G C12U C13A
3. U7G U8A U10G C13G
4. U7A G9A U11G C13G
5. U7C U8A U10A U11G C12U

Response:
1: 1.21; 2: 1.62; 3: 1.32; 4: 1.12; 5: 1.24

Dear colleague, could you send me aptazyme ON/OFF ratio for each of the items below? Thanks.
1. U7C U8A G9C U10C U11C C12G C13U
2. U7C U8C G9C U11C C13A

Response:
[1.04, 1.28]
